Hey, just so you know, these numbers are from ChEMBL document CHEMBL1126731.

- Test system: MT4
- testName: Antiviral activity against HIV-1 in MT-4 cells was evaluated by using a clinical strain (HE)
- Type: functional, cell-based
- conditionDetails: Homo sapiens
Could you mark each record Satisfied if its EC50 falls strictly under 8 µM, and Not satisfied if it equals or exceeds it?

smilesInput: O=C(O)c1cc(NS(=O)(=O)c2ccc(-c3ccc(S(=O)(=O)Nc4cc(C(=O)O)c(O)c(S(=O)(=O)O)c4)cc3)cc2)cc(S(=O)(=O)O)c1O
system: MT4
group: Satisfied
//
smilesInput: O=C(CCCCCCC(=O)Nc1cc(S(=O)(=O)O)cc2cc(S(=O)(=O)O)cc(O)c12)Nc1cc(S(=O)(=O)O)cc2cc(S(=O)(=O)O)cc(O)c12
system: MT4
group: Satisfied

Prompt: Hello, I'm reviewing records and need to know if EC50 of O=C(CCCCCCCCC(=O)Nc1cc(S(=O)(=O)O)cc2cc(S(=O)(=O)O)cc(O)c12)Nc1cc(S(=O)(=O)O)cc2cc(S(=O)(=O)O)cc(O)c12 is below 8 µM. Could you check?
Response: Satisfied

Prompt: Does the reported EC50 of the following compound sit strictly below 8 µM? O=C(CCCCCCCCCCC(=O)Nc1cc(S(=O)(=O)O)cc2cc(S(=O)(=O)O)cc(O)c12)Nc1cc(S(=O)(=O)O)cc2cc(S(=O)(=O)O)cc(O)c12
Response: Not satisfied
